TARGET_UNDER_TEST: T1, human ST2L extracellular domain with C-terminal His6 tag (human, UniProt Q01638 19-328)
T1 construct: also called huST2L-ECD; ST2L-ECD
T1 sequence: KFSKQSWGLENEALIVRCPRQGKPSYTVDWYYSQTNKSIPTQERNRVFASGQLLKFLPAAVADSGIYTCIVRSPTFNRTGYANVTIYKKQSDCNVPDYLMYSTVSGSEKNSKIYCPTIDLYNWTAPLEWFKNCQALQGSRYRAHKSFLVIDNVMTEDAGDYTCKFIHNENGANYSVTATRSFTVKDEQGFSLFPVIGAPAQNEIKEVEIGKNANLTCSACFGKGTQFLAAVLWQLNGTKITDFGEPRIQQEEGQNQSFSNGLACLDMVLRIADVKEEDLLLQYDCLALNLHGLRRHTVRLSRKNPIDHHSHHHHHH
TEST_DETAILS: SPR, mAb captured, ST2L-ECD in solution
This section presents binders with their documented kon values.
Kindly answer with a numeric value in M⁻¹ s⁻¹, unit omitted.

binder="STLM207 (antibody, V domains shown, frameworks VH3-23 / Vk-L6) VH: EVQLLESGGGLVQPGGSLRLSCAASGFTFSSYDMIWVRQAPGKGLEWVSTIRGEGGTTAYADSVKGRFTISRDNSKNTLYLQMNSLRAEDTAVYYCARDPWSTEGSFFVLDYWGQGTLVTVSS VL: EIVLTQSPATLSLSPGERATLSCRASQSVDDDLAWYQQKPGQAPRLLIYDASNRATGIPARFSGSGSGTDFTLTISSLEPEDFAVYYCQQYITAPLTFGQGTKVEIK" readout_value=8.33e+06

If you can, please state the reported kon value of STLM226 (antibody, V domains shown, VH STLH201 + VL STLL280) VH: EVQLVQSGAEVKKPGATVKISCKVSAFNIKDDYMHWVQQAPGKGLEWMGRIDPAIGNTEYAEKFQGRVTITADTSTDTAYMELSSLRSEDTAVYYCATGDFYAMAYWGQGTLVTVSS VL: DIQMTQSPSSLSASVGDRVTITCITNTDIDDVIHWYQQKPGKAPKLLIYEGNTLRPGVPSRFSGSGSGTDFTLTISSLQPEDFATYYCLQSDNLLTFGQGTKLEIK . 2.16e+07

From: patent US20170066831A1
